- Test system: K98450-129-R-PDC complex spheroid growth, percent test/control;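 also: luminescence used as a proxy for viable cell amount; spheroids exposed to agents for seven days before the viability readout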
- test_description: Anticancer human tumor K98450-129-R-PDC patient-derived colon adenocarcinoma cell line growth inhibition [RAS]; active = viability on the fitted dose curve at most 10% of control; inactive = the rest
- condition_context: second compound 0.003 µM; first compound 0.316 µM
Possible outcomes: t (active), f (inactive)

molecule: Nc1ccn(C2OC(CO)C(O)C2(F)F)c(=O)n1 (stereo not given) + CCn1c(-c2cc(N3CCN(C)CC3)cnc2C(C)OC)c2c3cc(ccc31)-c1csc(n1)CC(NC(=O)C1CC1C)C(=O)N1CCCC(N1)C(=O)OCC(C)(C)C2
answer_label: f

molecule: O=C(c1ccc(F)c(F)c1Nc1ccc(I)cc1F)N1CC(O)([C@@H]2CCCCN2)C1 + CCn1c(-c2cc(N3CCN(C)CC3)cnc2C(C)OC)c2c3cc(ccc31)-c1csc(n1)CC(NC(=O)C1CC1C)C(=O)N1CCCC(N1)C(=O)OCC(C)(C)C2
answer_label: f

molecule: NC1c2ccccc2OC12CCN(c1cnc3c(N4CCCc5ncccc54)n[nH]c3n1)CC2 (stereo not given) + CCn1c(-c2cc(N3CCN(C)CC3)cnc2C(C)OC)c2c3cc(ccc31)-c1csc(n1)CC(NC(=O)C1CC1C)C(=O)N1CCCC(N1)C(=O)OCC(C)(C)C2
answer_label: t

molecule: C[C@@H](NC(=O)c1ncnc(N)c1Cl)c1ncc(C(=O)Nc2cc(C(F)(F)F)c(Cl)cn2)s1 + CCn1c(-c2cccnc2C(C)OC)c2c3cc(ccc31)N1CCOC(CC(NC(=O)C(C(C)C)N(C)C(=O)C3(F)CCN(C(=O)C#CC(C)(C)N(C)C)CC3)C(=O)N3CCCC(N3)C(=O)OCC(C)(C)C2)C1
answer_label: f

molecule: CC(=O)OC12COC1CC(O)C1(C)C(=O)C(O)C3=C(C)C(OC(=O)C(O)C(NC(=O)OC(C)(C)C)c4ccccc4)CC(O)(C(OC(=O)c4ccccc4)C21)C3(C)C (stereo not given) + CCn1c(-c2cccnc2C(C)OC)c2c3cc(ccc31)N1CCOC(CC(NC(=O)C(C(C)C)N(C)C(=O)C3(F)CCN(C(=O)C#CC(C)(C)N(C)C)CC3)C(=O)N3CCCC(N3)C(=O)OCC(C)(C)C2)C1
answer_label: f

molecule: C[C@@H](NC(=O)c1ncnc(N)c1Cl)c1ncc(C(=O)Nc2cc(C(F)(F)F)c(Cl)cn2)s1 + CCn1c(-c2cc(N3CCN(C)CC3)cnc2C(C)OC)c2c3cc(ccc31)-c1csc(n1)CC(NC(=O)C1CC1C)C(=O)N1CCCC(N1)C(=O)OCC(C)(C)C2
answer_label: f

molecule: CC1(O)CCCC1n1c(=O)c(C(F)F)cc2cnc(NC3CCN(S(C)(=O)=O)CC3)nc21 (stereo not given) + CCn1c(-c2cc(N3CCN(C)CC3)cnc2C(C)OC)c2c3cc(ccc31)-c1csc(n1)CC(NC(=O)C1CC1C)C(=O)N1CCCC(N1)C(=O)OCC(C)(C)C2
answer_label: f

molecule: C=CC(=O)Nc1cc(Nc2nccc(-c3cn(C)c4ccccc34)n2)c(OC)cc1N(C)CCN(C)C + CCn1c(-c2cccnc2C(C)OC)c2c3cc(ccc31)N1CCOC(CC(NC(=O)C(C(C)C)N(C)C(=O)C3(F)CCN(C(=O)C#CC(C)(C)N(C)C)CC3)C(=O)N3CCCC(N3)C(=O)OCC(C)(C)C2)C1
answer_label: f

molecule: O=C(c1ccc(F)c(F)c1Nc1ccc(I)cc1F)N1CC(O)([C@@H]2CCCCN2)C1 + CCn1c(-c2cccnc2C(C)OC)c2c3cc(ccc31)N1CCOC(CC(NC(=O)C(C(C)C)N(C)C(=O)C3(F)CCN(C(=O)C#CC(C)(C)N(C)C)CC3)C(=O)N3CCCC(N3)C(=O)OCC(C)(C)C2)C1
answer_label: t

molecule: CC(Nc1ccc2c(c1)OCCn1cc(N3C(=O)OCC3C(F)F)nc1-2)C(N)=O (stereo not given) + CCn1c(-c2cccnc2C(C)OC)c2c3cc(ccc31)N1CCOC(CC(NC(=O)C(C(C)C)N(C)C(=O)C3(F)CCN(C(=O)C#CC(C)(C)N(C)C)CC3)C(=O)N3CCCC(N3)C(=O)OCC(C)(C)C2)C1
answer_label: f

molecule: CC(C)NCC(C(=O)N1CCN(c2ncnc3c2C(C)CC3O)CC1)c1ccc(Cl)cc1 (stereo not given) + CCn1c(-c2cc(N3CCN(C)CC3)cnc2C(C)OC)c2c3cc(ccc31)-c1csc(n1)CC(NC(=O)C1CC1C)C(=O)N1CCCC(N1)C(=O)OCC(C)(C)C2
answer_label: f

molecule: CC(=O)OC12COC1CC(O)C1(C)C(=O)C(O)C3=C(C)C(OC(=O)C(O)C(NC(=O)OC(C)(C)C)c4ccccc4)CC(O)(C(OC(=O)c4ccccc4)C21)C3(C)C (stereo not given) + CCn1c(-c2cc(N3CCN(C)CC3)cnc2C(C)OC)c2c3cc(ccc31)-c1csc(n1)CC(NC(=O)C1CC1C)C(=O)N1CCCC(N1)C(=O)OCC(C)(C)C2
answer_label: f

molecule: CC1(O)CCCC1n1c(=O)c(C(F)F)cc2cnc(NC3CCN(S(C)(=O)=O)CC3)nc21 (stereo not given) + CCn1c(-c2cccnc2C(C)OC)c2c3cc(ccc31)N1CCOC(CC(NC(=O)C(C(C)C)N(C)C(=O)C3(F)CCN(C(=O)C#CC(C)(C)N(C)C)CC3)C(=O)N3CCCC(N3)C(=O)OCC(C)(C)C2)C1
answer_label: f

molecule: Nc1ccn(C2OC(CO)C(O)C2(F)F)c(=O)n1 (stereo not given) + CCn1c(-c2cccnc2C(C)OC)c2c3cc(ccc31)N1CCOC(CC(NC(=O)C(C(C)C)N(C)C(=O)C3(F)CCN(C(=O)C#CC(C)(C)N(C)C)CC3)C(=O)N3CCCC(N3)C(=O)OCC(C)(C)C2)C1
answer_label: f

molecule: CC(C)NCC(C(=O)N1CCN(c2ncnc3c2C(C)CC3O)CC1)c1ccc(Cl)cc1 (stereo not given) + CCn1c(-c2cccnc2C(C)OC)c2c3cc(ccc31)N1CCOC(CC(NC(=O)C(C(C)C)N(C)C(=O)C3(F)CCN(C(=O)C#CC(C)(C)N(C)C)CC3)C(=O)N3CCCC(N3)C(=O)OCC(C)(C)C2)C1
answer_label: f

Where do these numbers come from? They come from PubChem BioAssay AID2060891.
